The measurements presented in this section are drawn from paper PMC4336329.

Target or system: human ether-à-go-go-related gene (hERG) potassium channel (human);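 note: peak tail current of the secondary pulse compared with the same well before compound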
Assay method text: primary screen, population patch clamp on CHO cells stably expressing hERG; higher = less effect of the substance
Out of some 310,000 compounds screened, about 14,000 (4.5%) showed an effect of 50% or more. Effects have a minus sign here. This is one part of a sample in which strong results are shown more often than they occur.
Would you mind labelling by hERG current change (%, negative = inhibition) at 10uM? At or over -10% is yes, under is no.

{"Molecule": "Cc1ccccc1OCC(O)CN1CCN(CC(O)COc2ccccc2C)CC1 (stereo not drawn)", "Assigned class": "no"}
{"Molecule": "CCN(CC(=O)NCc1cccs1)C(=O)c1cc(S(=O)(=O)N2CCCCC2)ccc1Cl", "Assigned class": "no"}
{"Molecule": "CCc1ccc(NC(=O)C2CCCN(S(C)(=O)=O)C2)cc1 (stereo not drawn)", "Assigned class": "yes"}

Identify whether the reported hERG current change (%, negative = inhibition) at 10uM of the following molecule is -10% or greater: COc1ccc(N2CCN(CC(O)COc3ccccc3[N+](=O)[O-])CC2)cc1.Cl (stereo not drawn)
no

Identify whether the reported hERG current change (%, negative = inhibition) at 10uM of the following molecule is -10% or greater: Cc1ccc(-c2noc(CSc3nnc(-c4ccccc4)n3C)n2)cc1
yes

Identify whether the reported hERG current change (%, negative = inhibition) at 10uM of the following molecule is -10% or greater: COc1ccc(CCN(C)C(=O)Cc2ccc(-c3ccccc3)cc2)cc1OC
yes

Identify whether the reported hERG current change (%, negative = inhibition) at 10uM of the following molecule is -10% or greater: COC(=O)c1ccccc1NC(=S)N1CCC(N2CCCCC2)CC1
no

Identify whether the reported hERG current change (%, negative = inhibition) at 10uM of the following molecule is -10% or greater: Cc1[nH]c2ccccc2c1C(=O)C(=O)N1CCC2(CC1)OCCO2
yes

Identify whether the reported hERG current change (%, negative = inhibition) at 10uM of the following molecule is -10% or greater: CCCCCn1c(SCC(=O)CC(=O)OCC)nc2cc(C(=O)N3CCC(C(N)=O)CC3)ccc2c1=O
no

Identify whether the reported hERG current change (%, negative = inhibition) at 10uM of the following molecule is -10% or greater: Cc1c(Cl)cccc1NC(=S)NC(=O)c1cncc(Br)c1
yes

----------
Target or system: human ether-à-go-go-related gene (hERG) potassium channel (human);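 note: peak tail current of the secondary pulse compared with the same well before compound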
Assay method text: primary screen, population patch clamp on CHO cells stably expressing hERG; higher = less effect of the substance
Screen size: about 310,000 compounds; about 14,000 (4.5%) showed an effect of 50% or more. The effect is printed as a negative number. The sample holds strong results, similar compounds and a random draw of the others, so the mix is not that of the screen.
Would you mind labelling by hERG current change (%, negative = inhibition) at 10uM? At or over -40% is fulfilled, under is not fulfilled.

{"Compound": "CCCC(=O)Nc1c2c(nn1-c1cccc(Cl)c1)CS(=O)(=O)C2", "Assigned class": "not fulfilled"}
{"Compound": "COc1ccc(OCC(=O)Nc2ccccc2C(=O)NC2CC2)cc1", "Assigned class": "fulfilled"}
{"Compound": "COc1ccc(OC)c(CN2CCN(CC(=O)Nc3ccccc3C(=O)NC3CC3)CC2)c1", "Assigned class": "not fulfilled"}
{"Compound": "CCC(=O)Nc1c2c(nn1-c1cccc(Cl)c1)CS(=O)(=O)C2", "Assigned class": "fulfilled"}
{"Compound": "Cc1cc(NC(=O)c2cc(CC(C)C)on2)n(-c2ccccc2)n1", "Assigned class": "fulfilled"}

Identify whether the reported hERG current change (%, negative = inhibition) at 10uM of the following compound is -40% or greater: O=C(c1ccco1)N1CCCC(c2nc3c(nnn3Cc3ccc(Cl)cc3Cl)c(=O)[nH]2)C1 (stereo not shown)
fulfilled

Identify whether the reported hERG current change (%, negative = inhibition) at 10uM of the following compound is -40% or greater: COc1ccc(CC(=O)Nc2c3c(nn2-c2cccc(Cl)c2)CS(=O)(=O)C3)cc1
not fulfilled

Identify whether the reported hERG current change (%, negative = inhibition) at 10uM of the following compound is -40% or greater: COc1ccc(CN(C)CC(=O)Nc2ccccc2C(=O)NC2CC2)cc1OC
fulfilled

Identify whether the reported hERG current change (%, negative = inhibition) at 10uM of the following compound is -40% or greater: O=C(c1ccc(Cl)cc1Cl)N1CCC(c2nc3c(nnn3Cc3ccco3)c(=O)[nH]2)CC1
not fulfilled

Identify whether the reported hERG current change (%, negative = inhibition) at 10uM of the following compound is -40% or greater: O=C(Nc1c2c(nn1-c1ccc(Cl)cc1)CS(=O)(=O)C2)C1CC1
fulfilled

Identify whether the reported hERG current change (%, negative = inhibition) at 10uM of the following compound is -40% or greater: O=C(Cc1cccs1)N1CCCC(c2nc3c(nnn3Cc3cccc(Cl)c3)c(=O)[nH]2)C1 (stereo not shown)
not fulfilled

----------
Provide the reported hERG current change (%, negative = inhibition) at 10uM of each item.
Target or system: human ether-à-go-go-related gene (hERG) potassium channel (human, UniProt Q12809);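 note: peak tail current of the secondary pulse compared with the same well before compound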
Sequence (Q12809 whole entry, looked up): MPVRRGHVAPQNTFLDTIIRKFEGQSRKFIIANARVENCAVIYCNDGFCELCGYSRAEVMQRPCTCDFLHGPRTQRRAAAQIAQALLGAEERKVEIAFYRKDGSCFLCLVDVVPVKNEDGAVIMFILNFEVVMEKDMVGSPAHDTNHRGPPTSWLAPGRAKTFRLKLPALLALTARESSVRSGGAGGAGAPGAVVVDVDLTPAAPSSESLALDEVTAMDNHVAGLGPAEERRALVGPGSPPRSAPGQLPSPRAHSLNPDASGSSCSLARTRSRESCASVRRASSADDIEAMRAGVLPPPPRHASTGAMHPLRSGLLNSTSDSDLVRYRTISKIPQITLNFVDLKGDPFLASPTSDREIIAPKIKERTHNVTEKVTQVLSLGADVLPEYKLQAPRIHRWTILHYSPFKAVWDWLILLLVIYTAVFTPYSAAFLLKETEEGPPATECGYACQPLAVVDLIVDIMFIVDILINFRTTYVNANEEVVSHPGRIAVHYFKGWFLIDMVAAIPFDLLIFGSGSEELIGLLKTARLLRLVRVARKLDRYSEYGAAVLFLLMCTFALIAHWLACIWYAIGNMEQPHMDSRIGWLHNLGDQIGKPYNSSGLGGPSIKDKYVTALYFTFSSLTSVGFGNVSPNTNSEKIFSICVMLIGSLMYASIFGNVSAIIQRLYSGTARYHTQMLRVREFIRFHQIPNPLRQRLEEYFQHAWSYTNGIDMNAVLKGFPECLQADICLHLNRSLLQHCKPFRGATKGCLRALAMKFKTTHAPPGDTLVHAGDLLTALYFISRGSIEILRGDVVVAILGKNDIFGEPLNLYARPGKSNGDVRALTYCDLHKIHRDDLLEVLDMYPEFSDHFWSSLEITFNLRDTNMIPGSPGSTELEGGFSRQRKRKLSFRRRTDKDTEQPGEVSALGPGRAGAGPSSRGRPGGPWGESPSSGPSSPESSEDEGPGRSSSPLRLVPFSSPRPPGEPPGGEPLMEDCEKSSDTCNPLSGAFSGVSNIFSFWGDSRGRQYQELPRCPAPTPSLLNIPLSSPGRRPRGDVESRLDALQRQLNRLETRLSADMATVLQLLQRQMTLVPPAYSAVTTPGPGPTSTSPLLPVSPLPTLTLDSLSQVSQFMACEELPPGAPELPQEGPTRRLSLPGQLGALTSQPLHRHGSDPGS
Assay method text: primary screen, population patch clamp on CHO cells stably expressing hERG; higher = less effect of the substance
Screen size: about 310,000 compounds; about 14,000 (4.5%) showed an effect of 50% or more. Effects have a minus sign here. Only a selection was taken, and strong results are over-represented in it overall.
Give bare numbers, in %.

{"Compound": "FC(F)(F)c1cccc(Cc2noc(CN3CCC(c4ccncc4)CC3)n2)c1", "Reported measurement": -66.2}

Can you give me hERG current change (%, negative = inhibition) at 10uM for all of these, one by one?
1. Cc1cc(OCC(O)CN2CCc3ccccc3C2)cc(C(C)C)c1.Cl (stereo not drawn)
2. CC1CCc2cc(F)cc3c(O)c(C(=O)NCCN(C)C)c(=O)n1c23.Cl (stereo not drawn)
3. FC(F)(F)c1cccc(Cc2noc(CN3CCCC3)n2)c1
4. CCOC(=O)N1CCN(Cc2nc(Cc3cccc(C(F)(F)F)c3)no2)CC1
5. Fc1cccc(Cc2noc(CN3CCC(c4ccncc4)CC3)n2)c1

[-56.2, -1, 15.6, -15, -21.4]

Can you give me hERG current change (%, negative = inhibition) at 10uM for all of these, one by one?
1. COC(=O)CN1C(=O)Nc2ccc(C)cc2C1c1ccccc1 (stereo not drawn)
2. CCN(CC)CCNC(C(=O)Nc1cccc(C(C)=O)c1)c1ccccc1.O=C(O)C(=O)O (stereo not drawn)

[14.3, -79.1]

Can you give me hERG current change (%, negative = inhibition) at 10uM for all of these, one by one?
1. CCCCn1c(Nc2ccccc2)nc2ccccc21
2. CCN(CC)CCNC(C(=O)Nc1cc(C(F)(F)F)ccc1Cl)c1ccccc1 (stereo not drawn)
3. O=C1CC(=O)N(CCc2ccccc2)C(=O)N1CCc1ccccc1
4. COc1ccc(-c2oc(/N=C/N3CCOCC3)c(C#N)c2-c2ccc(OC)cc2)cc1
5. Cc1ccc(OCC(O)CN2CCc3ccccc3C2)c(C)c1.Cl (stereo not drawn)
6. CCOc1ccc(NC(C(=O)Nc2cccc(C(C)=O)c2)c2ccccc2)cc1 (stereo not drawn)
7. Cc1ccc(OCCCCN2CCc3ccccc3C2)c(C)c1.Cl

1. 24.7
2. -76.4
3. 6.19
4. 13.9
5. -72.3
6. -49.7
7. -34.1

Can you give me hERG current change (%, negative = inhibition) at 10uM for all of these, one by one?
1. FC(F)(F)c1cccc(Cc2noc(CN3CCC(N4CCCCC4)CC3)n2)c1
2. CCCn1c2c(c(O)c(C(=O)NCc3ccccc3)c1=O)CCCC2
3. Cc1cccc(OCC(O)CN2CCc3ccccc3C2)c1.Cl (stereo not drawn)
4. NC(=O)[C@@H]1CCCN1Cc1nc(Cc2cccc(C(F)(F)F)c2)no1

-74.7
17
-38
8.45

Can you give me hERG current change (%, negative = inhibition) at 10uM for all of these, one by one?
1. OCC1CCCN(C2CCN(Cc3nc(Cc4cccc(C(F)(F)F)c4)no3)CC2)C1 (stereo not drawn)
2. CN(C)CCNC(C(=O)Nc1cc(Cl)cc(Cl)c1)c1ccccc1 (stereo not drawn)

[-74.1, -45.6]

----------
Target or system: human ether-à-go-go-related gene (hERG) potassium channel (human, UniProt Q12809);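 note: peak tail current of the secondary pulse compared with the same well before compound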
Assay method text: primary screen, population patch clamp on CHO cells stably expressing hERG; higher = less effect of the substance
Among all 310,000 compounds or so, about 14,000 (4.5%) showed an effect of 50% or more. Effects have a minus sign here. This is one part of a sample in which strong results are shown more often than they occur.
Provide the reported hERG current change (%, negative = inhibition) at 10uM of each item.
One number for each entry, in %.

Worked cases, hERG current change (%, negative = inhibition) at 10uM given:
{"Molecule": "CCN(Cc1ccccc1)C(=O)c1cccc(S(=O)(=O)N2CCN(c3ccccc3)CC2)c1", "Reported measurement": -15.8}
{"Molecule": "Cc1ccc(-c2cc(C(=O)NCC3CCCO3)c3ccccc3n2)cc1C (stereo not shown)", "Reported measurement": 12.1}
{"Molecule": "COCCN(Cc1ccccc1)C(=O)c1cccc(S(=O)(=O)N2CCN(c3ccccc3)CC2)c1", "Reported measurement": -52.8}

Can you give me hERG current change (%, negative = inhibition) at 10uM for all of these, one by one?
1. CCOC(=O)N1CCN(CC(O)COC2CC(C)CCC2C(C)C)CC1.Cl (stereo not shown)
2. COc1ccc(N(CC(=O)NCCSc2ccccn2)S(=O)(=O)c2ccc(C)cc2)cc1OC
3. Cc1cccn2c(=O)c3cc(C(=O)NC4CCCC4)c(=N)n(CC4CCCO4)c3nc12 (stereo not shown)
4. CC1CC(C)CN(CC(O)COC2CC(C)CC(C)(C)C2)C1.Cl (stereo not shown)
5. CC1CCC(C(C)C)C(OCC(O)CN2CCN(Cc3ccccc3)CC2)C1.Cl (stereo not shown)
6. CCc1cc2c(=O)c(-c3nc4ccccc4n3C)c(C)oc2c(CN2CCN(C)CC2)c1O

1: -33.1; 2: -17.7; 3: -74.4; 4: -32.3; 5: -66.5; 6: 14.3
